SYSTEM_TESTED: Proton Pump (H^+/K^+-ATPase) (Sus scrofa, UniProt P19156)
Sequence (P19156 2-1034 limits assumed): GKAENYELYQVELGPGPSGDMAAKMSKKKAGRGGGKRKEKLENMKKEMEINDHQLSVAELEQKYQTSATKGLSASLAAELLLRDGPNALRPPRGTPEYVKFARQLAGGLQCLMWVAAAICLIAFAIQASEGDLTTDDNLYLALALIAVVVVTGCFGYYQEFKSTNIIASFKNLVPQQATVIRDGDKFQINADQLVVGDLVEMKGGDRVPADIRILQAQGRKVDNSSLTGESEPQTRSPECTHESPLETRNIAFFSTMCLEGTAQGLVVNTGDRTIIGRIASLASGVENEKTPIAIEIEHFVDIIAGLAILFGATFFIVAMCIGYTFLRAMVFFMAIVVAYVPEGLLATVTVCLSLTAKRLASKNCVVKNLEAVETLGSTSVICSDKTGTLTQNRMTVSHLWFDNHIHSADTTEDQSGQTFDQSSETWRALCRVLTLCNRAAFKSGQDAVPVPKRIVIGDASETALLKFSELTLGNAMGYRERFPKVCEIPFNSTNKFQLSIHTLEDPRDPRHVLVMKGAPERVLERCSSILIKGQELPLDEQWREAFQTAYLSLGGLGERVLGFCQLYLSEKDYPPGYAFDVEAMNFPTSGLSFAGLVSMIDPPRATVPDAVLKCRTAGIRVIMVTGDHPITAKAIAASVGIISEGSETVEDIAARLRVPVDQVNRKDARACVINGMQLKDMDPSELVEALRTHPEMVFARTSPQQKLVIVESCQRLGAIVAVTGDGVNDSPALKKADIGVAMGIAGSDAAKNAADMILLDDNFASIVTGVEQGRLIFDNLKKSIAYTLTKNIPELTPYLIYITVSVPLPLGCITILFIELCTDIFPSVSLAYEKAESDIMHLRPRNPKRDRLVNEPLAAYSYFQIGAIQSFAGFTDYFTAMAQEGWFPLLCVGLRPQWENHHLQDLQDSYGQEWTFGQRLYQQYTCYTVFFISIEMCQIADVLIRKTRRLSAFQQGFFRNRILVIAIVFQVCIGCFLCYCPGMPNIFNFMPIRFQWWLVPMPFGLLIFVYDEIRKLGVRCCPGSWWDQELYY
Sequence (P18434 whole entry partner): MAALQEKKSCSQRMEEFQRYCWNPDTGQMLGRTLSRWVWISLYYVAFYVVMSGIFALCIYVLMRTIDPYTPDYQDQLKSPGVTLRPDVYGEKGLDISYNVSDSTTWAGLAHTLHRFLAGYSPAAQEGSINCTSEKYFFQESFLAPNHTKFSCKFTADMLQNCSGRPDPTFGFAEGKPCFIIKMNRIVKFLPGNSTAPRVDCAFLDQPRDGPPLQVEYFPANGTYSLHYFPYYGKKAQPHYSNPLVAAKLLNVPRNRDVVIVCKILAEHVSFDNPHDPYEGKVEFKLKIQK
RUN_DESCRIPTION: Inhibitory effects on proton pump (H^+/K^+-ATPase) activity
ASSAY_SETUP: hog gastric vesicles; K^+ stimulated H^+/K^+-ATPase activity; 30 minutes at 37° C.
Structures can show the parent of a compound that is named as a salt.
Could you please mark Criterion met for values of IC50 below 90 nM and Criterion not met for values at or above it?

Problem: Lab note: confirm whether the reported IC50 for this compound is below 90 nM, equality not counting. compound: COc1cccc(Cn2c(C)c(C)c3cc(CN4CCN(C)CC4)nc(N4CCc5ccccc5C4)c32)c1 [Example 876, hydrochloride]
Solution: Criterion not met

---

Entries and their pIC50 values follow.
SYSTEM_TESTED: Proton Pump (H^+/K^+-ATPase) (Sus scrofa)
RUN_DESCRIPTION: Inhibitory effects on proton pump (H^+/K^+-ATPase) activity
ASSAY_SETUP: hog gastric vesicles; K^+ stimulated H^+/K^+-ATPase activity; 30 minutes at 37° C.
Structures can show the parent of a compound that is named as a salt.
Schema: pIC50 number; meaning minus log10 of the concentration expressed in molar units.

Examples with their reported pIC50 follow.
COMPOUND | ASSAY_ENDPOINT | TEST_VALUE
C=CCn1c(C)c(C)c2cc(N)nc(N3CCc4ccccc4C3)c21 [Example 846, hydrochloride] | pIC50 | 6.86
CCC1c2ccccc2CCN1c1nccc2c(C)c(C)n(COC)c12 (centres unmarked) [Example 584, hydrochloride] | pIC50 | 6.48

Problem: For the compound Cc1c(C)n(Cc2ccccc2F)c2c(-c3ccc4ccccc4c3)nccc12 [Example 409, hydrochloride] , give its reported pIC50.
Solution: 7.03

Problem: Please supply the value of reported pIC50 for the item Cc1c(C)n(Cc2cccc(Cl)c2)c2c(N3CCc4ccccc4C3)nc(C(N)=O)cc12 [Example 750]
Solution: 6.53

Problem: Provide pIC50 value for the following compound: CCC1c2ccccc2CCN1c1nccc2c(C)c(C)n(Cc3ccc(OC)cc3)c12 (centres unmarked) [Example 583, hydrochloride]
Solution: 6.42

---

SYSTEM_TESTED: Proton Pump (H^+/K^+-ATPase) (Sus scrofa, UniProt P19156)
RUN_DESCRIPTION: Inhibitory effects on proton pump (H^+/K^+-ATPase) activity
ASSAY_SETUP: hog gastric vesicles; K^+ stimulated H^+/K^+-ATPase activity; 30 minutes at 37° C.
Structures can show the parent of a compound that is named as a salt.
ASSAY_ENDPOINT: IC50 (nM)
Write the answer as a number in nM, unit excluded.

COMPOUND | SYSTEM_TESTED | ASSAY_ENDPOINT | UNITS_SYMBOL | TEST_VALUE
Cc1ccc(Cn2c(C)c(C)c3ccnc(COc4ccc(F)cc4)c32)cc1 [Example 5, hydrochloride] | Proton Pump (H^+/K^+-ATPase) (Sus scrofa, UniProt P19156) | IC50 | nM | 450
C=CCn1c(C)c(C)c2ccnc(N3CCc4ccccc4C3)c21 [Example 489, p-toluenesulfonate] | Proton Pump (H^+/K^+-ATPase) (Sus scrofa, UniProt P19156) | IC50 | nM | 3
CCn1c(C)c(C)c2cc(C(=O)N3CCC(CCO)CC3)nc(N3CCc4ccccc4C3)c21 [Example 804, hydrochloride] | Proton Pump (H^+/K^+-ATPase) (Sus scrofa, UniProt P19156) | IC50 | nM | 36
Cc1[nH]c2c(N3CCc4ccccc4C3)nc(C(=O)N3CCN(C)CC3)cc2c1C [Example 827, hydrochloride] | Proton Pump (H^+/K^+-ATPase) (Sus scrofa, UniProt P19156) | IC50 | nM | 77
Cc1c(C)n(Cc2cccnc2)c2c(N3CCc4ccccc4C3)nccc12 [Example 516, hydrochloride] | Proton Pump (H^+/K^+-ATPase) (Sus scrofa, UniProt P19156) | IC50 | nM | 124

Problem: Quickly give me recorded IC50 for CCC1c2ccccc2CCN1c1nccc2c(C)c(C)n(CCOC)c12 (stereo not shown) [Example 585, hydrochloride]
Solution: 370

Problem: Return IC50 (reported value) for this compound: Cc1c(C)n(Cc2ccccc2F)c2c(CCc3ccccc3)nccc12 [Example 450, hydrochloride]
Solution: 270

Problem: For the compound Cc1c(C)n(Cc2ccccc2)c2c(CNc3ccc(F)cc3)nccc12 [Example 89, hydrochloride] , give its reported IC50.
Solution: 321

Problem: Give a short answer stating reported IC50 for Cc1c(C)n(Cc2ccc(F)cc2)c2c(N3CCc4ccccc4C3)nc(C(=O)N3CCN(C)CC3)cc12 [Example 831, hydrochloride] .
Solution: 39

Problem: Recall and state the measured IC50 for Cc1c(C)n(CC(C)C)c2c(N3CCc4ccccc4C3)nc(C(=O)N3CCN(C)CC3)cc12 [Example 833, hydrochloride] .
Solution: 43
